# TESTED ON: RET G810R (Homo sapiens (Human), UniProt P07949, G810R)
# Sequence (P07949 29-1114 G810R): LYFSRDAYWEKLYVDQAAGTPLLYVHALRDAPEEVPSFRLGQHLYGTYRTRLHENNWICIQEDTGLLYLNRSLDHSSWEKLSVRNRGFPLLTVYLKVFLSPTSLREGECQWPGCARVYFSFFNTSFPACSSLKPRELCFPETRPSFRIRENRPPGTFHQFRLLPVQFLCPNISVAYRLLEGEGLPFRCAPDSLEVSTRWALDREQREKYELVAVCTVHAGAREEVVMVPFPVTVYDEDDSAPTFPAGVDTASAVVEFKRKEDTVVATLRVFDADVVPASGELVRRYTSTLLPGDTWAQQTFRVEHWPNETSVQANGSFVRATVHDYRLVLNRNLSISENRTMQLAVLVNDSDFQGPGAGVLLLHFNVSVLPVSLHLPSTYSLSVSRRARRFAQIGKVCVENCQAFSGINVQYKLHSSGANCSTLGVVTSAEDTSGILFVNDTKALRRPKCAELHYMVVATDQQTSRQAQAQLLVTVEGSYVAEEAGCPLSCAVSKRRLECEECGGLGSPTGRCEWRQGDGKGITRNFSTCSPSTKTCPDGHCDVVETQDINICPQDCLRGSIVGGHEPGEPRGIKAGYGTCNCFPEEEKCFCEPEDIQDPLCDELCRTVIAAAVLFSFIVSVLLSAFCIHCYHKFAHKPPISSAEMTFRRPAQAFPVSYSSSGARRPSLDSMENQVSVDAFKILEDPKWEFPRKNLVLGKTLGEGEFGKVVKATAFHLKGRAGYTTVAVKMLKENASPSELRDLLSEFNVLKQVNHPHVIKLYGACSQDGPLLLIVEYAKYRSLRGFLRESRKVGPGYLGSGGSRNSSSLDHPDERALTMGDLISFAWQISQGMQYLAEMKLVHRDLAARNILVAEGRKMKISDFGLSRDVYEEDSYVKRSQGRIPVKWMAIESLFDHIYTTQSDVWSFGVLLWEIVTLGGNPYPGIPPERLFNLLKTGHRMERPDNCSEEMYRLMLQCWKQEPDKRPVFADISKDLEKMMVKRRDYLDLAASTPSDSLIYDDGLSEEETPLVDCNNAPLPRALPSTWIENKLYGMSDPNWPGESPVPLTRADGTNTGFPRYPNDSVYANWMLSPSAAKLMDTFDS
# PROCEDURE DETAILS: HTRF KinEASE-TK kinase activity test, RET G810R
# STATED CONDITIONS: read-out: RET G810R IC50; HTRF kinase assay
// reported pIC50 for each item listed
pIC50 is defined as minus the log10 of a concentration measured in mol/L.

Report pIC50, nothing else, for this compound: CCOc1cc(-c2ccc(N3CCC(CO)(C(=O)NCC(C)C)CC3)nc2)c2c3cn[nH]c3nn2c1
8.03

Report pIC50, nothing else, for this compound: CCOc1cc(-c2ccc(N3CC4(CCN(C(=O)c5c(F)cccc5Cl)C4)C3)nc2)c2c3cn[nH]c3nn2c1
7.82

Report pIC50, nothing else, for this compound: CCOc1cc(-c2ccc(N3CCC(CO)(NC(=O)c4ncccc4Cl)CC3)nc2)c2c3cn[nH]c3nn2c1
8.68

Report pIC50, nothing else, for this compound: CCOc1cc(-c2ccc(N3C4CCC3CN(Cc3ccc(OC)nc3)C4)nc2)c2c3cn[nH]c3nn2c1
7.73

Report pIC50, nothing else, for this compound: CCOc1cc(-c2ccc(N3CCC4(CN(C(=O)c5c(F)cccc5Cl)C4)C3)nc2)c2c3cn[nH]c3nn2c1
7.58

Report pIC50, nothing else, for this compound: CCOc1cc(-c2ccc(N3CC4CCC3CN4C(=O)c3c(F)cccc3Cl)nc2)c2c3cn[nH]c3nn2c1 (stereo not drawn)
7.79

Report pIC50, nothing else, for this compound: C=CC(=O)N1C2CC1CN(c1ccc(-c3cc(OCC)cn4nc5[nH]ncc5c34)cn1)C2
7.39

Report pIC50, nothing else, for this compound: CCOc1cc([C@H]2CC[C@](OC)(C(=O)N[C@@H](C)c3ccc(-n4cc(F)cn4)nc3)CC2)c2c3cn[nH]c3nn2c1
8.00

Report pIC50, nothing else, for this compound: CCOc1cc(-c2ccc(N3CC4(CCCN(C(=O)c5c(F)cccc5Cl)C4)C3)nc2)c2c3cn[nH]c3nn2c1
7.47

Report pIC50, nothing else, for this compound: CCOc1cc(-c2ccc(N3CCN(Cc4ccc(OC)nc4)C4(CC4)C3)nc2)c2c3cn[nH]c3nn2c1
7.42

Report pIC50, nothing else, for this compound: CCOc1cc(-c2ccc(N3CC[C@H](NC(=O)c4cc(F)ccc4Cl)[C@@H](O)C3)nc2)c2c3cn[nH]c3nn2c1
8.72

Report pIC50, nothing else, for this compound: CCOc1cc(-c2cnc(N3CCC(C)(NC(=O)c4c(F)ccc(F)c4F)CC3)cn2)c2c3cn[nH]c3nn2c1
8.16
